# System: COLO 205
# test description: NCI tumour cell line growth inhibition, 48 h
Activity calls are given as the source filed them. Rule as the data show it: active = GI50 up to about 1.1 µM and inactive = higher.
Possible outcomes: 1.0 (active), 0.0 (inactive)

molecule	target or system	category
COc1cc(O)c2c(c1)C(O)C(O)CC1OC1C(=O)/C=C/CC(C)OC2=O (stereo not drawn)	COLO 205	1.0
COc1cccc(CCNc2c(C#N)c3n(c4ccccc4[n+]3C)c3ncccc23)c1	COLO 205	0.0
Cc1ccc(Nc2c(C#N)[n+]([O-])c3cc(Cl)ccc3[n+]2[O-])cc1	COLO 205	0.0
CC1(C)CC(=O)C(=CNC(=S)c2ccccc2)C(=O)C1	COLO 205	0.0
Nn1c(S)nnc1N/N=C1/C(=O)Nc2ccccc21	COLO 205	0.0
CCOC(=O)NC(OCc1ccccc1)(C(=O)OC)C(F)(F)F (stereo not drawn)	COLO 205	0.0
CC(O)c1ccc[n+](Cc2ccccc2)c1 (stereo not drawn)	COLO 205	0.0
COC(=O)C(C/C=C(\C)c1ccc(Cl)cc1)C(C)=O (stereo not drawn)	COLO 205	0.0
O=C1C=C(c2[nH]c3ccccc3c2C2=CC(=O)c3ccccc3C2=O)C(=O)c2ccccc21	COLO 205	0.0
CC12CCC([C@H](N3CCOCC3)/C1=N\OCCN1CCCC1)C2(C)C (stereo partly drawn)	COLO 205	0.0
O=C1C(Cl)=C(NCCOCCO)C(=O)c2c(O)ccc(O)c21	COLO 205	0.0
O=C(c1ccc(Cl)cc1)N(C(=S)N1CCN(c2ccccn2)CC1)c1ccccc1	COLO 205	0.0
CCOc1ccc(/C=C2/C(=O)N=C(N)N=C2N)cc1OCC	COLO 205	0.0
COc1ccc2c(c1OC)C(Br)CCC(Br)(Br)C2=O (stereo not drawn)	COLO 205	0.0
Fc1cccc(F)c1C1SCc2nc3cc(Cl)c(Cl)cc3n21 (stereo not drawn)	COLO 205	0.0
Cc1nnc2n1-c1ccccc1C(=S)N1CSCC21 (stereo not drawn)	COLO 205	0.0
COc1cc(C(=O)C/C(CCC(=O)Nc2ccc(Cl)cc2Cl)=N/Nc2nnc(C)n2N)ccc1O	COLO 205	0.0
NCC(NC(=O)OCc1ccccc1)C(=O)O (stereo not drawn)	COLO 205	0.0
C=CC(Br)(CBr)CCC1OC1(C)C (stereo not drawn)	COLO 205	0.0
O=C(c1cccs1)N(C(=S)N1CCN(c2ccccn2)CC1)c1ccccc1	COLO 205	0.0
C=CCNC(=S)NNC(=O)c1c(C)nc2sccn12	COLO 205	0.0
C[C@H](CC[C@@H](O)C(C)(C)O)[C@H]1CC[C@@]2(C)[C@@H]3CC=C4[C@@H](CC[C@H](OC5OC(CO)C(O)C(O)C5O)C4(C)C)[C@]3(C)C(=O)C[C@]12C (stereo partly drawn)	COLO 205	0.0
Cc1ccc(S(=O)(=O)N2c3ccccc3[C@H]3CCc4c([nH]c5ccccc45)[C@H]32)cc1	COLO 205	0.0
Cc1cccc2c1C(=O)[C@](C)([C@]1(C)Nc3cccc(C)c3C1=O)N2	COLO 205	0.0
c1ccc(CN2CCCCC(Sc3ccccc3)CC2)cc1 (stereo not drawn)	COLO 205	0.0
COc1ccc(C2SC(=N)Nc3c2c(C)nn3C(=O)Cc2ccccc2)cc1 (stereo not drawn)	COLO 205	0.0
COc1ccc(Cc2c(N)[nH]c(=O)[nH]c2=O)cc1	COLO 205	0.0
c1ccc2cc(CN3CCC(C4CCN(Cc5ccc6ccccc6c5)CC4)CC3)ccc2c1	COLO 205	0.0
O=C1C=CC2(C=C1)CCC(=O)O2	COLO 205	0.0
N#CCCN(CCC#N)c1ccc(/C=C2\N=C(c3ccccc3)N(NC(=O)c3ccncc3)C2=O)cc1	COLO 205	0.0
C=CCN(c1cc(OCc2ccccc2)c2c(c1)c(C)cn2S(=O)(=O)c1ccccc1)S(C)(=O)=O	COLO 205	0.0
CC1CC/C(=C\c2ccc(Cl)cc2)C(=O)/C1=C\c1ccc(Cl)cc1 (stereo not drawn)	COLO 205	0.0
N#CCc1c(F)c(F)c(F)c(F)c1F	COLO 205	0.0

====

# Tested on: COLO 205
# test description: NCI tumour cell line growth inhibition, 48 h
The source made the active and inactive calls. Rule as the data show it: active = GI50 up to about 1.1 µM and inactive = higher.

compound	target or system	GI50
C/C(=N\NS(=O)(=O)c1ccc(C)cc1)c1cc2ccccc2n1C	COLO 205	> 100 µM (inactive)
C[C@H](O)C(=O)SC[C@H](NC(=O)CC[C@@H](N)C(=O)O)C(=O)NCC(=O)O	COLO 205	> 100 µM (inactive)
Cc1ccc(NC(=O)C(Cc2c[nH]c3ccccc23)NC(=O)Oc2ccccc2)cc1C (centres undefined)	COLO 205	50.4 µM (inactive)
C=C(C)[C@H]1C=C[C@@H](OC(C)=O)[C@@]2(COC(C)=O)[C@H](OC(=O)CCC)[C@H]3[C@@H](OC(C)=O)[C@@H](C)C[C@]3(O)C(=O)[C@@](C)(OC(C)=O)[C@H]12	COLO 205	22 µM (inactive)
N#CC1(C#N)C(C#N)(C#N)C1(C#N)C(N)=O	COLO 205	> 100 µM (inactive)
c1ccc2c(c1)CCCC/C2=N/OCC1CO1 (centres undefined)	COLO 205	48.8 µM (inactive)
CSc1n[nH]c2[nH]nc(C)c12	COLO 205	> 100 µM (inactive)
CCOC(=O)C(NCc1ccc2c(c1)OCO2)(NC(=O)c1ccccc1)C(F)(F)F (centres undefined)	COLO 205	> 100 µM (inactive)
CC1=N[C@](C)(C2CC3C=CC2C3=O)COC1=O (some centres undefined)	COLO 205	> 100 µM (inactive)
Nc1ccc2ccc(-c3ccc[nH]3)nc2n1	COLO 205	> 100 µM (inactive)
CNC(SC)=C1C(=O)OC(C)(C)OC1=O	COLO 205	45.8 µM (inactive)
C/C=C/C#CC#C/C=C/C=C/C(O)CCO (centres undefined)	COLO 205	> 23.1 µM (inactive)
N#C[BH2-][n+]1cn(C2CC(O)C(COP(=O)(O)OC3CC(n4c[n+]([BH2-]C#N)c5c(=O)[nH]c(N)nc54)OC3CO)O2)c2nc(N)[nH]c(=O)c21 (centres undefined)	COLO 205	> 100 µM (inactive)
COc1ccc2nc3c([N+](=O)[O-])ccc4c3c(c2c1)N=CN4CCN(C)C	COLO 205	2.34 µM (inactive)

====

Listed next: entries and their corresponding GI50.
# Test system: KM-20L2
# test description: NCI tumour cell line growth inhibition, 48 h
The source made the active and inactive calls. No stated cut-off is given here; in the data, active = GI50 up to about 1.1 µM and inactive = higher.
value type: GI50

> print(dat)
                                    molecule  target.or.system             observed
 1  COC(=O)c1cc2cc(OC)c(OC)cc2cc(C(=O)OC)c1=O           KM-20L2  > 100 µM (inactive)
 2  COc1cc(C=C2C(=O)OC(C)(C)OC2=O)cc(OC)c1OC           KM-20L2  > 100 µM (inactive)
 3                  O=C(O)C1=CNC(C(=O)O)=NN1           KM-20L2  > 100 µM (inactive)
 4  ClC(Cl)=C(Cl)C1(Cl)CC1COCc1ccccc1 (centres undefined)           KM-20L2   33.3 µM (inactive)
 5      Cc1cc2c(C)nn(Cc3ccccc3Cl)c2c(C#N)c1C           KM-20L2  > 100 µM (inactive)
 6  Cn1cnc([N+](=O)[O-])c1Sc1nc2cc(Cl)c(F)cc2[nH]1           KM-20L2   11.4 µM (inactive)
 7  N=C1OC(c2ccc3c(c2)OCO3)C(NNS(=O)(=O)c2ccccc2)=C1O (centres undefined)           KM-20L2  > 100 µM (inactive)
 8  O=C1c2ccccc2C(=O)C2C3c4ccccc4C(c4ccccc43)C12 (centres undefined)           KM-20L2  > 100 µM (inactive)
 9  c1ccc2c(c1)CCCC/C2=N/OCC1CO1 (centres undefined)           KM-20L2  > 100 µM (inactive)
10              CNC(SC)=C1C(=O)OC(C)(C)OC1=O           KM-20L2  > 100 µM (inactive)
11  COc1ccc(C2=NN(c3ccccc3)C[N+](c3ccc(C)cc3)=N2)cc1           KM-20L2     59 µM (inactive)
12  O=C(c1nc2ccc(Cl)cc2nc1O)C(O)c1ccccc1 (centres undefined)           KM-20L2     76 µM (inactive)
13              COc1cc2c(cc1OCc1ccccc1)CNCC2           KM-20L2  > 100 µM (inactive)
14  COc1cc2c([C@@H](OC(=O)c3ccccc3)c3ccc4c(c3)OCO4)nccc2c(OC)c1OC           KM-20L2   42.1 µM (inactive)
